# System: Fibroblast
# assay_comment: Multiplex assay against human fibroblast
# Type: toxicity, cell-based
# settings: 48 h, 10 µM, compound concentration 10 uM, replicate 2
Non-standard residues stand in square brackets, D forms with d. Residues, ends and D or L forms follow the SMILES beside them.
Could you label it Condition met if measured Population Pyknosed Nuclei (%) is 10% or higher, and Condition not met otherwise?

| compound | category_label |
| --- | --- |
| CN(C)C/C=C/C(=O)Nc1ccc(C(=O)N2CCCC(Nc3ncc(Cl)c(-c4c[nH]c5ccccc45)n3)C2)cc1 (stereo not given) | Condition met |
| CC(C)(O)C(=O)N1CCN(c2ccc(C(F)(F)F)c(C3=C(c4c[nH]c5ccccc45)C(=O)NC3=O)c2)CC1 | Condition met |
| CN1CCN(c2ccc(Nc3c4ccccc4nc4ccccc34)cc2)CC1.Cl.Cl.O | Condition not met |
| Cc1cc(=O)n(C)c2cc(N3C(=O)CC[C@H](NS(=O)(=O)CC(C)C)[C@H]3c3ccc(Cl)cc3)ccc12 | Condition met |
| OCCCNc1cc(-c2ccnc(Nc3cccc(Cl)c3)n2)ccn1 | Condition met |
| Cc1cc(O)c(-c2ccc([C@@H](C)CN(C)C)cc2)c2c1[nH]c(=O)c1sccc12 | Condition met |
| CN1CCN2c3ccccc3Cc3ccccc3C2C1.Cl (stereo not given) [MIANSERIN HYDROCHLORIDE] | Condition met |
| C[C@@H]1CC(=O)Nc2cccc(-c3ccc4c(c3)c(-c3cnn(C)c3)nn4C)c2N1 | Condition met |
| COc1cc2nc(N3CCN(C(=O)c4ccco4)CC3)nc(N)c2cc1OC.Cl [PRAZOSIN HYDROCHLORIDE] | Condition not met |

As a next step, examine the compound that follows.
Query block: Given the entry CC(C)C[C@@H]1NC(=O)[C@@H](C(C)C)NC(=O)[C@@H]2CCCN2C(=O)[C@@H](CC(=O)O)NC(=O)[C@@H](Cc2c[nH]c3ccccc23)NC1=O [BQ-123] (cyclo(L[dW][dD]P[dV])) , answer whether its Population Pyknosed Nuclei (%) meets or surpasses 10%.
Result block: Condition met

* * *

# Test system: U2OS
# assay_comment: Multiplex assay against U2OS
# Format: toxicity, cell-based
# settings: human, 12 h, 10 µM, compound concentration 10 uM, replicate 1
reported_metric: Population Hoechst High Intensity Objects (%)
The reply should contain only the number, in %.

Query block: Item under review: Cc1cc(=O)n(C)c2cc(N3C(=O)CC[C@H](NS(=O)(=O)CC(C)C)[C@H]3c3ccc(Cl)cc3)ccc12 . Reported Population Hoechst High Intensity Objects (%)?
Result block: 5

Query block: Item under review: CCCCCCNC(=O)Nc1ccc(S(=O)(=O)Nc2ccc(CCNC[C@H](O)COc3ccc(O)cc3)cc2)cc1 . Reported Population Hoechst High Intensity Objects (%)?
Result block: 3

Query block: Item under review: CN1CCC(C(=O)c2cccc(NC(=O)c3c(F)cc(F)cc3F)n2)CC1 . Reported Population Hoechst High Intensity Objects (%)?
Result block: 1

Query block: Item under review: COC(c1ccccc1)(c1ccccc1)[C@H](Oc1nc(C)cc(C)n1)C(=O)O . Reported Population Hoechst High Intensity Objects (%)?
Result block: 2

Query block: Item under review: CSc1nc(NC2CCCC2)c([N+](=O)[O-])c(NC2CCCC2)n1 . Reported Population Hoechst High Intensity Objects (%)?
Result block: 3

* * *

# Tested on: HEK-293T
# assay_comment: Multiplex assay against HEK293T
# Type: toxicity, cell-based
# settings: human, 24 h, 10 µM, compound concentration 10 uM, replicate 1
# Lookup of reported Total Cell Count keyed by entry
Enter a number only.

Example entries and their recorded answers appear below.
| smiles_entry | Total Cell Count |
| --- | --- |
| S=C(NCCCc1c[nH]cn1)NCCCN(Cc1ccc(Cl)c(Cl)c1)c1ccc(Br)cn1 | 237 |
| C=CCN1C[C@H](C(=O)N(CCCN(C)C)C(=O)NCC)C[C@@H]2c3cccc4[nH]cc(c34)C[C@H]21 | 556 |
| Cc1c(Cc2ccc3ccccc3n2)c2cc(F)ccc2n1CC(=O)O | 560 |
| O=c1nc2[nH]c3ccccc3nc-2c(=O)[nH]1 | 491 |
| COc1c(Nc2ccc(S(C)(=O)=O)nc2C)ncnc1OC1CCN(C(=O)OC(C)C)CC1 | 355 |
| COc1cc(OC2CCN(C(C)=O)CC2)ccc1C(=O)N1CCC(N2C(=O)OCc3ccccc32)CC1 | 523 |
| COc1ccc2[nH]c(I)c(CCNC(C)=O)c2c1 | 568 |
| Cc1cc(O)c(-c2ccc([C@@H](C)CN(C)C)cc2)c2c1[nH]c(=O)c1sccc12 | 290 |

# context switch: different compound, same Total Cell Count
Query block: Item under review: CC(C)C[C@H](CO)Nc1nc(S[C@@H](C)c2ccccc2)nc2nc(N)sc12 . Reported Total Cell Count?
Result block: 346

* * *

# Tested on: HEK-293T
# assay_comment: Multiplex assay against HEK293T
# Format: toxicity, cell-based
# settings: human, 48 h, 10 µM, compound concentration 10 uM, replicate 1
Population Tubulin-Different-Phenotype (%) vs 20%: less than gives Satisfied; not less than gives Not satisfied.

The following compounds have reported results that may help.
| compound | tested_target | category_label |
| --- | --- | --- |
| COc1cc(Nc2ncc3c(n2)-c2ccc(Cl)cc2C(c2c(F)cccc2OC)=NC3)ccc1C(=O)O | HEK-293T | Not satisfied |
| CN1CCC(C(=O)c2cccc(NC(=O)c3c(F)cc(F)cc3F)n2)CC1 | HEK-293T | Not satisfied |
| COc1cc(C(=O)N2CC[C@@H](O)[C@@H](N)C2)cc2nc(-c3cc4ccccc4n3CC3CC3)n(C)c12.Cl | HEK-293T | Not satisfied |

As a next step, examine the compound that follows.
Query block: State whether 20% exceeds Population Tubulin-Different-Phenotype (%) recorded for COc1c(Nc2ccc(S(C)(=O)=O)nc2C)ncnc1OC1CCN(C(=O)OC(C)C)CC1 .
Result block: Not satisfied

* * *

# System: Fibroblast
# assay_comment: Multiplex assay against human fibroblast
# Type: toxicity, cell-based
# settings: 48 h, 1 µM, compound concentration 1 uM, replicate 1
# Lookup of reported Population Normal (%) keyed by entry
The reply should contain only the number, in %.

Example entries and their recorded answers appear below.
| compound | quantitative_result |
| --- | --- |
| N[C@](CC1c2ccccc2Oc2ccccc21)(C(=O)O)[C@H]1C[C@@H]1C(=O)O | 97 |
| O=C(NCCNCC(O)COc1ccc(O)cc1)N1CCOCC1.O=C(NCCNCC(O)COc1ccc(O)cc1)N1CCOCC1.O=C(O)/C=C/C(=O)O (stereo not drawn) [XAMOTEROL FUMARATE] | 98 |
| Cc1cc(O)c(-c2ccc([C@@H](C)CN(C)C)cc2)c2c1[nH]c(=O)c1sccc12 | 92 |

Query block: Item under review: Nc1nc(-c2ccco2)c2cnn(Cc3ccccc3F)c2n1 . Reported Population Normal (%)?
Result block: 96

* * *

# Lookup of reported Population Hoechst High Intensity Objects (%) keyed by entry
# Test system: HEK-293T
# assay_comment: Multiplex assay against HEK293T
# Assay type: toxicity, cell-based
# settings: human, 24 h, 10 µM, compound concentration 10 uM, replicate 1
The reply should contain only the number, in %.

| compound | tested_target | quantitative_result |
| --- | --- | --- |
| CCC(=O)OCC(=O)[C@@]1(OC(=O)CC)[C@@H](C)C[C@H]2[C@@H]3CCC4=CC(=O)C=C[C@]4(C)[C@@]3(Cl)[C@@H](O)C[C@@]21C [BECLOMETHASONE DIPROPIONATE] | HEK-293T | 11 |
| Cn1cc(C(=O)OCC2CCN(CCNS(C)(=O)=O)CC2)c2ccccc21 | HEK-293T | 5 |

# context switch: different compound, same Population Hoechst High Intensity Objects (%)
Query block: Item under review: CN(C)C/C=C/C(=O)Nc1ccc(C(=O)N2CCCC(Nc3ncc(Cl)c(-c4c[nH]c5ccccc45)n3)C2)cc1 (stereo not drawn) . Reported Population Hoechst High Intensity Objects (%)?
Result block: 49

* * *

# Tested on: U2OS
# assay_comment: Multiplex assay against U2OS
# Format: toxicity, cell-based
# settings: human, 24 h, 1 µM, compound concentration 1 uM, replicate 1
Non-standard residues stand in square brackets, D forms with d. Residues, ends and D or L forms follow the SMILES beside them.
Population Mitotic Cells (%) vs 20%: less than gives satisfied; not less than gives not satisfied.

The following compounds have reported results that may help.
| compound | tested_target | category_label |
| --- | --- | --- |
| CC(C)C[C@@H]1NC(=O)[C@@H](C(C)C)NC(=O)[C@@H]2CCCN2C(=O)[C@@H](CC(=O)O)NC(=O)[C@@H](Cc2c[nH]c3ccccc23)NC1=O [BQ-123] (cyclo(L[dW][dD]P[dV])) | U2OS | not satisfied |
| CN1CCC(C(=O)c2cccc(NC(=O)c3c(F)cc(F)cc3F)n2)CC1 | U2OS | satisfied |
| COc1cc2nc(N3CCN(C(=O)c4ccco4)CC3)nc(N)c2cc1OC.Cl [PRAZOSIN HYDROCHLORIDE] | U2OS | satisfied |

Query block: State whether 20% exceeds Population Mitotic Cells (%) recorded for CCC(=O)OCC(=O)[C@@]1(OC(=O)CC)[C@@H](C)C[C@H]2[C@@H]3CCC4=CC(=O)C=C[C@]4(C)[C@@]3(Cl)[C@@H](O)C[C@@]21C [BECLOMETHASONE DIPROPIONATE] .
Result block: not satisfied

Query block: State whether 20% exceeds Population Mitotic Cells (%) recorded for COc1c(Nc2ccc(S(C)(=O)=O)nc2C)ncnc1OC1CCN(C(=O)OC(C)C)CC1 [ADP-597] .
Result block: satisfied
